// reported IC50 per item
- measured_target: p110γ (Homo sapiens (Human), UniProt P48736)
- Sequence (P48736 whole entry): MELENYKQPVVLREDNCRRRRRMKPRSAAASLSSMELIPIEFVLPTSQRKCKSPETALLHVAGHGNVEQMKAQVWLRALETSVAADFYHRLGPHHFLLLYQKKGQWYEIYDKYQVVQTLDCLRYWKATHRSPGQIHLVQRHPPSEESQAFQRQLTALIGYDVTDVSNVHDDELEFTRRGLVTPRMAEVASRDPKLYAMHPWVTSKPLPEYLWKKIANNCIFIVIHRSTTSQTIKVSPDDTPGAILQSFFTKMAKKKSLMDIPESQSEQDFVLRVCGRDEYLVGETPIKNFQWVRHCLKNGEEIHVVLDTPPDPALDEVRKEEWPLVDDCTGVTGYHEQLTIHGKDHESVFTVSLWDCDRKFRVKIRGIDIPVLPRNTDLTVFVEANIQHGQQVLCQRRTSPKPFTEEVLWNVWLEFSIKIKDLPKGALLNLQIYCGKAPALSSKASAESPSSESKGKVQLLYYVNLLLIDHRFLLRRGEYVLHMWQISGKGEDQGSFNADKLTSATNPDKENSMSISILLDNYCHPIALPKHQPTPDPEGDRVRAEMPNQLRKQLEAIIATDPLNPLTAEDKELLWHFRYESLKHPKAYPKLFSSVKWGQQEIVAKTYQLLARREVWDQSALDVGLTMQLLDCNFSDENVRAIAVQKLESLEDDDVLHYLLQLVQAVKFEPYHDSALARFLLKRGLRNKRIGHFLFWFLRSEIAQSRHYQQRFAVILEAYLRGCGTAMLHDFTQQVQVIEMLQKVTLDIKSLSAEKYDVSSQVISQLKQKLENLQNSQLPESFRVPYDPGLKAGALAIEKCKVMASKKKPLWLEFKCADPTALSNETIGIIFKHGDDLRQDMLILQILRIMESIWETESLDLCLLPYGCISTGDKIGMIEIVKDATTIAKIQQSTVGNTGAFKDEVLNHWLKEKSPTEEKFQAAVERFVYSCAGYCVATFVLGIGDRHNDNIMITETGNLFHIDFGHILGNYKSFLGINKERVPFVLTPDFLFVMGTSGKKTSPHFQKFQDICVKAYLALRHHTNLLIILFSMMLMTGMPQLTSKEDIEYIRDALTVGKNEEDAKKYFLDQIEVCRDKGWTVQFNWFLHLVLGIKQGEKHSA
- procedure_summary: PI 3-Kinase (human) HTRF assay, p110γ
- Assay type: biochemical
- condition_parameters: read-out: PI3K γ In Vitro IC50

Below, 8 compounds whose answers are already recorded.
| compound | IC50 |
| --- | --- |
| CC(=O)Nc1n[nH]c2cc(-c3ccc4oc(N)nc4c3)ccc12 [compound 430] | < 10000 nM |
| COc1ncc(-c2ccc3ncc(C(=O)N4CCOCC4)n3c2)cc1NS(=O)(=O)c1ccc(F)cc1 [compound 421] | < 100 nM |
| CC(=O)Nc1nc2ccc(-c3cc(F)c4oc(N)nc4c3)cc2s1 [compound 434] | < 100 nM |
| C[C@H]1CN(C2CN(C(=O)c3cnc4ccc(-c5ccc6oc(N)nc6c5)cn34)C2)CCN1C [compound 512] | < 10000 nM |
| Nc1nc2cc(-c3ccc4ncc(C(=O)N5CC[C@H](F)C5)n4c3)ccc2o1 [compound 476] | < 100 nM |
| O=C(c1cnc2ccc(-c3ccc(Cl)c(NS(=O)(=O)c4ccc(F)cc4F)c3)cn12)N1CCOCC1 [compound 461] | < 10000 nM |
| COC1CN(C(=O)c2cnc3ccc(-c4ccc5oc(N)nc5c4)cn23)C1 [compound 467] | < 100 nM |
| Nc1nc2cc(-c3ccc4ncc(C(=O)N5CC6(C5)OCCO6)n4c3)ccc2o1 [compound 494] | < 1000 nM |

Next compound, IC50 to be filled in.
## Input Given the entry Nc1nc2cc(-c3ccc4ncc(C(=O)N5CC(F)C5)n4c3)ccc2o1 [compound 468] , report its measured IC50.
## Output < 100 nM

====

// reported IC50 per item
- measured_target: p110γ (Homo sapiens (Human), UniProt P48736)
- procedure_summary: PI 3-Kinase (human) HTRF assay, p110γ
- Assay type: biochemical
- condition_parameters: read-out: PI3K γ In Vitro IC50

## Input Request body: readout IC50, system p110γ (Homo sapiens (Human), UniProt P48736), query COc1ncc(-c2ccc3ncc(C(=O)N4CCOCC4)n3c2)cc1NS(C)(=O)=O [compound 416] . Return the value.
## Output < 1 µM

## Input Request body: readout IC50, system p110γ (Homo sapiens (Human), UniProt P48736), query C[C@@H]1COCCN1C(=O)c1cnc2ccc(-c3ccc4oc(N)nc4c3)cn12 [compound 495] . Return the value.
## Output < 1 µM

## Input Request body: readout IC50, system p110γ (Homo sapiens (Human), UniProt P48736), query Nc1nc2cc(-c3ccc4ncc(C(=O)N5CC(N6CCC(F)(F)C6)C5)n4c3)ccc2o1 [compound 502] . Return the value.
## Output < 1 µM

====

// reported pIC50 per item
- measured_target: p110β/p85α (Homo sapiens (Human), UniProt P42338)
- Sequence (P42338 whole entry, one chain of several): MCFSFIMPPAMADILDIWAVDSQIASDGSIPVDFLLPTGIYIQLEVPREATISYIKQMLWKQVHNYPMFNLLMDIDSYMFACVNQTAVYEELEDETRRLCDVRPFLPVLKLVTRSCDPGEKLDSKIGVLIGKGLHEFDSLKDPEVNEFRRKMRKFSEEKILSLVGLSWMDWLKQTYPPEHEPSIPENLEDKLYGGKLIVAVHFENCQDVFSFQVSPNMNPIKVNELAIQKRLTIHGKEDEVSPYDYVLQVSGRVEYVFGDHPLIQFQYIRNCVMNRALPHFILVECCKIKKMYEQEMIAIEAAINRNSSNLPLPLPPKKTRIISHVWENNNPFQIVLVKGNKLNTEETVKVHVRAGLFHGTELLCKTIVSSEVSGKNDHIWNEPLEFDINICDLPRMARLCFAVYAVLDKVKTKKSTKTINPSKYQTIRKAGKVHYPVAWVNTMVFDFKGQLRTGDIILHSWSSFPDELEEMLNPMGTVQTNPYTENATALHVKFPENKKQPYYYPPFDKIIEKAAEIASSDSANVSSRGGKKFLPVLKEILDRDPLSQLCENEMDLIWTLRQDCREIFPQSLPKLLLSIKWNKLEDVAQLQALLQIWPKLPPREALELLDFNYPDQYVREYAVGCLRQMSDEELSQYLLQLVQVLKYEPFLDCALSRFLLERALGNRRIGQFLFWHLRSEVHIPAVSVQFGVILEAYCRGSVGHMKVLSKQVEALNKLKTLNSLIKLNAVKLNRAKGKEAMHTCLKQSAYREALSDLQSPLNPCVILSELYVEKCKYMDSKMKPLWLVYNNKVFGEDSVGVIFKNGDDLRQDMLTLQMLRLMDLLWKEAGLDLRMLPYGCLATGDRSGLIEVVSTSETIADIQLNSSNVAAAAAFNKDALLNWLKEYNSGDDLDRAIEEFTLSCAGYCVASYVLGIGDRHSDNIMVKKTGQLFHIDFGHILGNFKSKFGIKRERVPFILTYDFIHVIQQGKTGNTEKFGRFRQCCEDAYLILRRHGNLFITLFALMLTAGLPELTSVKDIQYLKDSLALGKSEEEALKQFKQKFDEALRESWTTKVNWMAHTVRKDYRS
- procedure_summary: PI 3-Kinase (human) HTRF assay, p110β/p85α
- Assay type: biochemical
- condition_parameters: read-out: PI3K β IC50
pIC50: −log10 of the molar value.

Below, 5 compounds whose answers are already recorded.
| compound | measured_target | pIC50 |
| --- | --- | --- |
| CN(C)CC(=O)N1CCN(c2cnc3ccc(-c4ccc5oc(N)nc5c4)cc3n2)CC1 [compound 139] | p110β/p85α (Homo sapiens (Human), UniProt P42338) | > 6.00 |
| CC(C)(C#N)c1ccc(Nc2ncnc3ccc(-c4ccc5oc(N)nc5c4)cc23)cc1 [compound 102] | p110β/p85α (Homo sapiens (Human), UniProt P42338) | > 6.00 |
| Nc1nc2cc(-c3ccc4ncn(CCO)c(=O)c4c3)ccc2o1 [compound 184] | p110β/p85α (Homo sapiens (Human), UniProt P42338) | > 5.00 |
| Nc1nc2cc(-c3cn4c(-c5ccncc5)cnc4cn3)ccc2o1 [compound 68] | p110β/p85α (Homo sapiens (Human), UniProt P42338) | > 5.00 |
| Nc1nc2cc(-c3ccc4ncc(C(=O)NCCO)n4c3)ccc2o1 [compound 189] | p110β/p85α (Homo sapiens (Human), UniProt P42338) | > 6.00 |

## Input Given the entry C[C@@H]1CN(c2cnc3ccc(-c4ccc5oc(N)nc5c4)cc3n2)CCN1 [compound 179] , report its measured pIC50.
## Output > 6.00

====

- measured_target: p110α/p85α (Homo sapiens (Human))
- procedure_summary: PI 3-Kinase (human) HTRF assay, p110α/p85α
- Type: biochemical
- condition_parameters: read-out: PI3K α IC50
value_kind: IC50

| compound | IC50 |
| --- | --- |
| Nc1nc2cc(-c3ccc4ncc(-c5cn[nH]c5)n4c3)ccc2o1 [compound 38] | < 100 nM |

## Input Request body: readout IC50, system p110α/p85α (Homo sapiens (Human)), query Nc1nc2cc(-c3ccc4ncnc(OC5CCOCC5)c4c3)ccc2o1 [compound 47] . Return the value.
## Output < 100 nM

## Input Request body: readout IC50, system p110α/p85α (Homo sapiens (Human)), query CN1CCN(C(=O)c2cnc3ccc(-c4ccc5nc(N)sc5c4)cn23)CC1 [compound 146] . Return the value.
## Output < 10000 nM

====

- measured_target: p110δ/p85α (Homo sapiens (Human))
- Sequence (O00329 whole entry, one chain of several): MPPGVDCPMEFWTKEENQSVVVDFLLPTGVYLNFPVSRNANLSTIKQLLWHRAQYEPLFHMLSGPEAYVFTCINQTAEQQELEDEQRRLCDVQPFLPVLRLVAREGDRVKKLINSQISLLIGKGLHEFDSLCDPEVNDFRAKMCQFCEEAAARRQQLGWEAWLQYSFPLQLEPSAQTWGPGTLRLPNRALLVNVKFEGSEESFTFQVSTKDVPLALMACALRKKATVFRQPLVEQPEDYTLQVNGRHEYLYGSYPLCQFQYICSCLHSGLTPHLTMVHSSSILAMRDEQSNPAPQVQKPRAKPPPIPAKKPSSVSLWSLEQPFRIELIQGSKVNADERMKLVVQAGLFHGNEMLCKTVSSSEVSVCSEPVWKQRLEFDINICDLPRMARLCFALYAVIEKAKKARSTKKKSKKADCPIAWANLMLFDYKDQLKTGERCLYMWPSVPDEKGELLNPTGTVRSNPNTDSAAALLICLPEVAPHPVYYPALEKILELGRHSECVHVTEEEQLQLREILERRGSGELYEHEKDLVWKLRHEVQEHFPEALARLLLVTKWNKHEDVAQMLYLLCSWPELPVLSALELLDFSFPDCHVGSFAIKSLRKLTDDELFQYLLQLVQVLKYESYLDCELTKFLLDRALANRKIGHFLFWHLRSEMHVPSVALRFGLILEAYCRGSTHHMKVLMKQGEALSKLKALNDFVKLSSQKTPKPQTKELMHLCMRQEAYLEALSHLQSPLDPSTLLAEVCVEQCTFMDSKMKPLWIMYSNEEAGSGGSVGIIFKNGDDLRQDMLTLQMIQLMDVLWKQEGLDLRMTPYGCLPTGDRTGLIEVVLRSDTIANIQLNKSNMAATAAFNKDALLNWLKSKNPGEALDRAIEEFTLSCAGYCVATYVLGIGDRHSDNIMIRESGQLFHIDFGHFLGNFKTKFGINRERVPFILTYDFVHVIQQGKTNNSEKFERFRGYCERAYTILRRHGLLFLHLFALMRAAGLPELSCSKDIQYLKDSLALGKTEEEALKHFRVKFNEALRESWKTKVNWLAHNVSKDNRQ
- procedure_summary: PI 3-Kinase (human) HTRF assay, p110δ/p85α
- Format: biochemical
- condition_parameters: read-out: PI3K δ In Vitro IC50
// reported IC50 per item

Below, 2 compounds whose answers are already recorded.
| compound | IC50 |
| --- | --- |
| CC(Oc1nc(-c2ccc3ncc(C(=O)N4CCOCC4)n3c2)cnc1N)C(F)(F)F (stereo not drawn) [compound 411] | < 10 µM |
| O=C(c1cnc2ccc(-c3cnc4[nH]ncc4c3)cn12)N1CCOCC1 [compound 492] | < 10 µM |

Next compound, IC50 to be filled in.
## Input Given the entry C[C@@H]1CCCN1C(=O)c1cnc2ccc(-c3ccc4oc(N)nc4c3)cn12 [compound 481] , report its measured IC50.
## Output < 10 µM

====

- measured_target: p110α/p85α (Homo sapiens (Human))
- procedure_summary: PI 3-Kinase (human) HTRF assay, p110α/p85α
- Assay type: biochemical
- condition_parameters: read-out: PI3K α IC50
value_kind: IC50

| compound | IC50 |
| --- | --- |
| Nc1nc2cc(-c3ccc4nccc(NC5CCOCC5)c4c3)ccc2o1 [compound 32] | < 10000 nM |
| CN1CCN(C(=O)c2cnc3cnc(-c4ccc5oc(N)nc5c4)cn23)CC1 [compound 123] | < 10000 nM |
| CN1CCN(c2cc(-c3ccnc4ccc(-c5ccc6oc(N)nc6c5)cc34)ccn2)CC1 [compound 30] | < 100 nM |

## Input Given the entry CC1CN(c2cnc3ccc(-c4ccc5oc(N)nc5c4)cc3n2)CC(C)N1 (stereo not drawn) [compound 131] , report its measured IC50.
## Output < 1000 nM

## Input Given the entry Nc1nc2cc(-c3ccc4ncc(-c5cccnc5)n4c3)ccc2o1 [compound 37] , report its measured IC50.
## Output < 100 nM

## Input Given the entry Nc1nc2cc(-c3ccc4ncc(C(=O)N5CCOCC5)n4n3)ccc2o1 [compound 105] , report its measured IC50.
## Output < 1000 nM

====

- measured_target: p110γ (Homo sapiens (Human), UniProt P48736)
- procedure_summary: PI 3-Kinase (human) HTRF assay, p110γ
- Format: biochemical
- condition_parameters: in vitro; read-out: PI3K γ IC50
// reported IC50 per item

Below, 4 compounds whose answers are already recorded.
| mol | measured_target | IC50 |
| --- | --- | --- |
| Cc1cn(C2CN(c3cnc4ccc(-c5ccc6oc(N)nc6c5)cc4n3)C2)cn1 | p110γ (Homo sapiens (Human), UniProt P48736) | < 1000 nM |
| COc1nc(-c2ccc3oc(N)nc3c2)cnc1N | p110γ (Homo sapiens (Human), UniProt P48736) | < 1000 nM |
| Nc1nc2cc(-c3ccc4ncc(N5CC(C(=O)N6CCN(CC7CC7)CC6)C5)nc4c3)ccc2o1 | p110γ (Homo sapiens (Human), UniProt P48736) | < 1000 nM |
| CC(=O)Nc1ncc(-c2ccc3oc(N)nc3c2)s1 | p110γ (Homo sapiens (Human), UniProt P48736) | < 10000 nM |

## Input Given the entry Nc1nc2cc(-c3ccc4ncc(C(=O)NCCCN5CCCC5)n4c3)ccc2o1 , report its measured IC50.
## Output < 1000 nM

====

- measured_target: p110α/p85α (Homo sapiens (Human), UniProt P42336)
- Sequence (P42336 whole entry): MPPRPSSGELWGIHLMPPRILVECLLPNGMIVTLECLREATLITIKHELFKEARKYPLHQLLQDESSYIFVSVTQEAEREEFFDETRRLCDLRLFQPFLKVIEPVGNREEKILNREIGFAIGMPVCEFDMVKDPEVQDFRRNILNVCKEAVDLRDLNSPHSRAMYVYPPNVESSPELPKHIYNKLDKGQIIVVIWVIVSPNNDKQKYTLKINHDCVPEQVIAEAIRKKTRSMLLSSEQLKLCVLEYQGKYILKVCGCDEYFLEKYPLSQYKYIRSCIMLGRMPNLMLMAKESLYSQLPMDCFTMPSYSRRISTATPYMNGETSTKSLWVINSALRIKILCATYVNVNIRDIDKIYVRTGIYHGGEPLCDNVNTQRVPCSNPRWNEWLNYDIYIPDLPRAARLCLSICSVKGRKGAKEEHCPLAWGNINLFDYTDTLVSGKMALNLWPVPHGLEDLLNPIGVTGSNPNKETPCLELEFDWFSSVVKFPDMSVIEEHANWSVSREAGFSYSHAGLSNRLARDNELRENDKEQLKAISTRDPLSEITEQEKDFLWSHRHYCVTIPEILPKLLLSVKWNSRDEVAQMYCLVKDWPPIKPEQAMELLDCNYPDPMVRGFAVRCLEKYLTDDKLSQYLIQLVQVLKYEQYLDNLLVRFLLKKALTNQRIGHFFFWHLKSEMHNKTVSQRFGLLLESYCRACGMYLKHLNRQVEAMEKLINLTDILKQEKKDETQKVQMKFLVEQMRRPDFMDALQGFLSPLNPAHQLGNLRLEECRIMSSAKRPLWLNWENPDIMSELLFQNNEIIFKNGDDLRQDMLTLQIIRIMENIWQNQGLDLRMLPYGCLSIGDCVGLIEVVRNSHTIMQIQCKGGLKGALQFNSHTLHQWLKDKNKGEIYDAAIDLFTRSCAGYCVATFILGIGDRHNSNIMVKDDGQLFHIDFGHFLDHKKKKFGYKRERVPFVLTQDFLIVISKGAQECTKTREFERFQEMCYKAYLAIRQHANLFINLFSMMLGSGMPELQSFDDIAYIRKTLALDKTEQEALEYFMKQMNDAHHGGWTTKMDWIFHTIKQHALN
- Sequence (P27986 whole entry partner): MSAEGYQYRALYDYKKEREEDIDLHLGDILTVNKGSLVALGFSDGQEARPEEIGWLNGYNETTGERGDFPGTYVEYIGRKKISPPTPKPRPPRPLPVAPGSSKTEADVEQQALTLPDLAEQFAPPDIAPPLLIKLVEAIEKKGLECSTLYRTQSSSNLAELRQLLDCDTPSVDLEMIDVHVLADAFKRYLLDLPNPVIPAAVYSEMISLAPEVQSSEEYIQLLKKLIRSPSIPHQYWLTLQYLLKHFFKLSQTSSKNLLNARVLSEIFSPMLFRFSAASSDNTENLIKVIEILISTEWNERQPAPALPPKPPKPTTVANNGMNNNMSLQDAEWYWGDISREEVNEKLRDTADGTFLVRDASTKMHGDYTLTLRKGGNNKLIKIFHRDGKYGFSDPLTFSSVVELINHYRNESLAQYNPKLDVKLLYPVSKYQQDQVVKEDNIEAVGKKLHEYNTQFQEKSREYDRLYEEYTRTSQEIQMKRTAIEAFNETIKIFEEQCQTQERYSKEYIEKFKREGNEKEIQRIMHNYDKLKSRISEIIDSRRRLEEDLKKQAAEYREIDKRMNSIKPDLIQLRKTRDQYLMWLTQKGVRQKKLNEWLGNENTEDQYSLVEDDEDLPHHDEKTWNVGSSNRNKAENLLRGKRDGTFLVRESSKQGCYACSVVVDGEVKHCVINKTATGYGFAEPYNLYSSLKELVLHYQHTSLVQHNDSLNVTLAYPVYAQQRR
- procedure_summary: PI 3-Kinase (human) HTRF assay, p110α/p85α
- Format: biochemical
- condition_parameters: read-out: PI3K α IC50
pIC50: −log10 of the molar value.
// reported pIC50 per item

Below, 8 molecules whose answers are already recorded.
| molecule | pIC50 |
| --- | --- |
| COC(=O)N1CCN(c2cnc3ccc(-c4ccc5oc(N)nc5c4)cc3n2)CC1 [compound 193] | > 7.00 |
| Nc1nc2ccc(-c3ccc4ncn(C5CCOCC5)c(=O)c4c3)cc2o1 [compound 63] | > 5.00 |
| CC(=O)NC1CCN(C(=O)c2cnc3ccc(-c4ccc5oc(N)nc5c4)cn23)CC1 [compound 147] | > 6.00 |
| Nc1nc2cc(-c3ccc4ncc(-c5cccnc5)nc4c3)ccc2o1 [compound 76] | > 7.00 |
| Nc1nc2cc(-c3ccc4ncc(C#CC5CC5)n4c3)ccc2o1 [compound 39] | > 7.00 |
| Nc1nc2cc(-c3ccc4ncc(C(=O)N5CCCCC5)n4c3)ccc2o1 [compound 196] | > 6.00 |
| Nc1nc2cc(-c3ccc4nccc(N5CCOCC5)c4c3)ccc2o1 [compound 28] | > 7.00 |
| Nc1nc2cc(-c3ccc4ncc(N5CCOCC5)nc4c3)ccc2o1 [compound 64] | > 7.00 |

Next molecule, pIC50 to be filled in.
## Input Given the entry CN1CCN(C(=O)c2cnc3ccc(-c4ccc5nc(N)oc5c4)cn23)CC1 [compound 145] , report its measured pIC50.
## Output > 6.00

src = patent US11547697B2
